Exercise: state measured TGI for each of the molecules provided.
- Tested on: A498 renal
- Procedure Text: NCI tumour cell line growth inhibition, 48 h

Below, each entry is followed by its recorded TGI result.
Molecule: CC(=O)OCC1OC(Nc2ccc3nc(C)n(-c4cccc(C)c4)c(=O)c3c2)C(OC(C)=O)C(OC(C)=O)C1OC(C)=O (centres undefined)
Measurement Name: TGI
Test Value: > 62.5 µM
//
Molecule: S=c1[nH]nc(COc2ccc(Cl)cc2)o1
Measurement Name: TGI
Test Value: > 100 µM
//
Molecule: Cc1cc(S(N)(=O)=O)c(SCc2nc(N)nc(N(C)C)n2)cc1Cl
Measurement Name: TGI
Test Value: > 10 µM

For each entry beneath this line, provide reported TGI.
1. O=C(CCCN1CCC2(CC1)C(=O)NC(=O)N2c1ccccc1)c1ccc(F)cc1
2. O=C(Nc1ccncc1)C(=O)c1cn(S(=O)(=O)c2ccc(Br)cc2)c2ccccc12
3. Clc1ccccc1/C=C/c1nsc(/C=C/c2ccccc2Cl)n1
4. Cc1cc(C)nc(NS(=O)(=O)c2ccc(Nc3c4ccccc4nc4c(C(=O)Nc5ccc(S(N)(=O)=O)cc5)cccc34)cc2)n1

1: > 100 µM; 2: > 100 µM; 3: > 100 µM; 4: > 100 µM

Provide the reported TGI of each entry below, same order.
1. O=S(=O)(O)CS(=O)(=O)OCCCl
2. NS(=O)(=O)c1ccc(NC(=O)c2cc([N+](=O)[O-])cc([N+](=O)[O-])c2)cc1

> 100 µM
> 100 µM
